remaining at 1 h, 5 µM: recorded values
- method.description: Metabolic stability in human liver microsomes assessed as compound remaining at 5 uM after 1 hr
- Assay type: ADME, Microsome
- measurement.conditions: read-out: Stability
Give just the numeric value; % need not be written.

> print(dat)
                               given.smiles       recorded.endpoint  measurement
1  COc1cc(C(=O)c2ccc(-c3csc(NC(=O)[C@@H](N)C(C)C)n3)cc2-n2cncn2)cc(OC)c1OC  remaining at 1 h, 5 µM           15

# context switch: different compound, same remaining at 1 h, 5 µM
Lookup result for "COc1cc(C(=O)c2ccc(-c3csc(N)n3)cc2-n2cncn2)cc(OC)c1OC" ; measured remaining at 1 h, 5 µM: 60

====

- Tested on: CX-1
- method.description: Antitumor activity against human CX-1 cells xenografted in mouse assessed as mouse survival at 5 mg/kg, ip for every 4 days 4 doses
- Format: functional, organism-based
- Set-up: dose 5 mg/kg
Active and inactive are the calls of the source. No cut-off for these calls is given here.
recorded.endpoint: Activity

> print(dat)
                               given.smiles  recorded.endpoint  measurement
1  COc1cc(C(=O)c2ccc(-c3csc(NC(=O)CN)n3)cc2-n2cncn2)cc(OC)c1OC           Activity       Active
2  COc1cc(C(=O)c2ccc(-c3csc(NC(=O)[C@@H](N)Cc4ccccc4)n3)cc2-n2cncn2)cc(OC)c1OC           Activity       Active
3  COc1cc(C(=O)c2ccc(-c3csc(NC(=O)C(C)(C)N)n3)cc2-n2cncn2)cc(OC)c1OC           Activity       Active
4  COc1cc(C(=O)c2ccc(-c3csc(NC(=O)[C@@H](N)C(C)C)n3)cc2-n2cncn2)cc(OC)c1OC           Activity       Active

====

- method.description: Aqueous solubility of the compound in deionized water
- Type: physicochemical
recorded.endpoint: solubility (µg/mL)
Give just the numeric value; µg/mL need not be written.

Lookup result for "COc1cc(C(=O)c2ccc(-c3csc(NC(=O)[C@@H](N)C(C)C)n3)cc2-n2cncn2)cc(OC)c1OC" ; measured solubility: 930

====

remaining at 1 h, 5 µM: recorded values
- method.description: Metabolic stability in dog liver microsomes assessed as compound remaining at 5 uM after 1 hr
- Assay type: ADME, Canis lupus familiaris, Microsome
- measurement.conditions: read-out: Stability
Give just the numeric value; % need not be written.

> print(dat)
                               given.smiles       recorded.endpoint  measurement
1  COc1cc(C(=O)c2ccc(-c3csc(NC(=O)[C@@H](N)C(C)C)n3)cc2-n2cncn2)cc(OC)c1OC  remaining at 1 h, 5 µM           10

Lookup result for "COc1cc(C(=O)c2ccc(-c3csc(N)n3)cc2-n2cncn2)cc(OC)c1OC" ; measured remaining at 1 h, 5 µM: 60

====

- System: Mus musculus
- method.description: Toxicity in human CX-1 cells xenografted in mouse assessed as chage in body weight at 5 mg/kg, ip for every 4 days 4 doses (Rbv = 24.5%)
- Format: organism-based
- Set-up: dose 5 mg/kg, route intraperitoneal
- measurement.conditions: in vivo, 96 h
recorded.endpoint: Activity (%)
Give just the numeric value; % need not be written.

Examples from the recorded data:
> print(dat)
                               given.smiles  measurement
1  COc1cc(C(=O)c2ccc(-c3csc(NC(=O)C(C)(C)N)n3)cc2-n2cncn2)cc(OC)c1OC         24.8
2  COc1cc(C(=O)c2ccc(-c3csc(NC(=O)[C@@H](N)Cc4ccccc4)n3)cc2-n2cncn2)cc(OC)c1OC         28.9
3  COc1cc(C(=O)c2ccc(-c3csc(NC(=O)[C@@H](N)C(C)C)n3)cc2-n2cncn2)cc(OC)c1OC         25.7

# context switch: different molecule, same Activity
Lookup result for "COc1cc(C(=O)c2ccc(-c3csc(NC(=O)CN)n3)cc2-n2cncn2)cc(OC)c1OC" ; measured Activity: 22.2

====

Activity: recorded values
- System: Mus musculus
- method.description: Toxicity in human CX-1 cells xenografted in mouse assessed as chage in body weight at 10 mg/kg, ip for every 4 days 4 doses (Rbv = 24.5%)
- Type: organism-based
- Parameters: dose 10 mg/kg, route intraperitoneal
- measurement.conditions: in vivo, 96 h
Give just the numeric value; % need not be written.

Examples from the recorded data:
> print(dat)
                               given.smiles  unit.of.measure  measurement
1  COc1cc(C(=O)c2ccc(-c3csc(NC(=O)[C@@H](N)Cc4ccccc4)n3)cc2-n2cncn2)cc(OC)c1OC                %         24.5
2  COc1cc(C(=O)c2ccc(-c3csc(NC(=O)C(C)(C)N)n3)cc2-n2cncn2)cc(OC)c1OC                %         26.7
3  COc1cc(C(=O)c2ccc(-c3csc(NC(=O)[C@@H](N)C(C)C)n3)cc2-n2cncn2)cc(OC)c1OC                %         14.7

# context switch: different molecule, same Activity
// assay Mus musculus, entry "COc1cc(C(=O)c2ccc(-c3csc(NC(=O)CN)n3)cc2-n2cncn2)cc(OC)c1OC" , Activity value = 21

Where do these numbers come from? They come from ChEMBL document CHEMBL1268832.
